# ASSAY_TARGET: PI3Kγ (Homo sapiens, UniProt P48736, Q459R)
# Construct: His (C); construct obtained from Roger Williams lab (MRC LMB)
# Sequence (P48736 with tags, fused parts or gaps Q459R): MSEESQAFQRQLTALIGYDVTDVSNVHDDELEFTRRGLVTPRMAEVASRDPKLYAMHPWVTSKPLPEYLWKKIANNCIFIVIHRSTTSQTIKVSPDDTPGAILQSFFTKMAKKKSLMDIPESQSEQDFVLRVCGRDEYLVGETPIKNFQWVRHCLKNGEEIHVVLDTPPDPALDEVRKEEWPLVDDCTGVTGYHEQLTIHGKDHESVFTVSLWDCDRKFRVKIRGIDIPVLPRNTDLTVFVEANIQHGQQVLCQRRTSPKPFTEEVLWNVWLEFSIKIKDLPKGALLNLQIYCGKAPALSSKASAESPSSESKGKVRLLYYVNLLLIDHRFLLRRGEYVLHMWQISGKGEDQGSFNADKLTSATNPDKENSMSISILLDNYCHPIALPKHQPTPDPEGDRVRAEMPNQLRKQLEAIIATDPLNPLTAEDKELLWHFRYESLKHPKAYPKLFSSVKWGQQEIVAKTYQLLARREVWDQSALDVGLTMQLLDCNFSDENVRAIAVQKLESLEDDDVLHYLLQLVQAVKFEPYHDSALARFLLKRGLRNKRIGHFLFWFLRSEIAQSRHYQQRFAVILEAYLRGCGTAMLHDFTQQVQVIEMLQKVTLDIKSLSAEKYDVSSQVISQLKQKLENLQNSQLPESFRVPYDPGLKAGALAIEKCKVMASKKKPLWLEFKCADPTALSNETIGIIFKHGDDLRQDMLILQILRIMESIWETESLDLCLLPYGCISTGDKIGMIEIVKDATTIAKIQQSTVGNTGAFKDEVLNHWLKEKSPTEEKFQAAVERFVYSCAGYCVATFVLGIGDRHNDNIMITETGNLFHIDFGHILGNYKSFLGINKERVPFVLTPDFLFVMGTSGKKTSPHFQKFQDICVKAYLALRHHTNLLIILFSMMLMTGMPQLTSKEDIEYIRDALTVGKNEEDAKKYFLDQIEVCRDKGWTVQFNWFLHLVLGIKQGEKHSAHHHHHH
# ASSAY_PROTOCOL: PI3K KinaseGlo assay, PI3Kgamma
# MEASUREMENT_PARAMETERS: KinaseGlo, 1 μM ATP, 150 nM enzyme, 90 mins
pIC50: −log10 of the molar value.
OUTCOME_MEASURE: pIC50

>>> endpoint_result("[2H]C([2H])([2H])C(c1nccc(-c2sc(NC(=O)N3CC[C@@H](C)[C@H]3C(N)=O)nc2C)n1)(C([2H])([2H])[2H])C([2H])([2H])[2H]")
7.12

[I] Cc1nc(NC(=O)N2CCC(C)(C)C2C(N)=O)sc1-c1ccnc(C(C)(C)C(F)(F)F)c1 (racemic)
[II] Cc1nc(NC(=O)N2CC[C@@H](C)[C@H]2C(N)=O)sc1-c1ccnc(C(C)(C)F)n1
**Q:** Return label of the item with the larger pIC50. Candidates: I , II . Please indicate the selected item by its label.
**A:** II

====

The following molecules have recorded pIC50 on PI3Kβ (Homo sapiens).
Sequence (P42338 with tags, fused parts or gaps): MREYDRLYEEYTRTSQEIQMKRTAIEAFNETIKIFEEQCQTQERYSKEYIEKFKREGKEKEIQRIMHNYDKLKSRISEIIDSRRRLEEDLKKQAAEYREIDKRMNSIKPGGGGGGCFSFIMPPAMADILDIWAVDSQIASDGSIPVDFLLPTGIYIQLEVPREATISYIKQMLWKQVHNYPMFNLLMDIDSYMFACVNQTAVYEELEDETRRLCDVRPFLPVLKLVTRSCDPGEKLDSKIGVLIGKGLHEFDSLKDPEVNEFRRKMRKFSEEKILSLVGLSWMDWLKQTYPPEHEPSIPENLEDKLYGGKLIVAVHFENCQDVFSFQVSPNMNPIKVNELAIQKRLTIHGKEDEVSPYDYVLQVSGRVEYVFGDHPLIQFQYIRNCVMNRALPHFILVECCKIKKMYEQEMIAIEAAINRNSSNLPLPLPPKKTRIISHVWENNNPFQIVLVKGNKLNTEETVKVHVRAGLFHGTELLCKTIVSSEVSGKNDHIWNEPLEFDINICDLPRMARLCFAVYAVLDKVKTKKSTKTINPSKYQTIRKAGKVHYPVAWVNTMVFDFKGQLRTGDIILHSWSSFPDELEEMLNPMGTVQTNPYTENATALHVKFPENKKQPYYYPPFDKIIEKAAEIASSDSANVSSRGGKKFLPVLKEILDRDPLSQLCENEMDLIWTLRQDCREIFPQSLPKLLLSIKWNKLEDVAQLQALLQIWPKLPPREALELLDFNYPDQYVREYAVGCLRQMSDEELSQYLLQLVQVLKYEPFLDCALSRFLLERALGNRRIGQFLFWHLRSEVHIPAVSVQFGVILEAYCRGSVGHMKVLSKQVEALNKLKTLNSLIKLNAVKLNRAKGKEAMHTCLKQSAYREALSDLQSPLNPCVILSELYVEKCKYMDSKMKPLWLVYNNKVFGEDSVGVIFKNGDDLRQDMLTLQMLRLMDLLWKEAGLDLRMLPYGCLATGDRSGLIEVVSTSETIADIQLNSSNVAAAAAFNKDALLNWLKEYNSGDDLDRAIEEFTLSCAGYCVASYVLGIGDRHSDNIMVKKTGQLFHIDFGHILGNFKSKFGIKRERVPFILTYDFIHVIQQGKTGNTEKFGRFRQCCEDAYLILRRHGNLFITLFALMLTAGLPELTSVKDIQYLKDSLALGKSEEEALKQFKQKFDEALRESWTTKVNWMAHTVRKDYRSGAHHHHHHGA
pIC50: −log10 of the molar value.
OUTCOME_MEASURE: pIC50

[I] [2H]C([2H])([2H])C(c1nccc(-c2sc(NC(=O)N3CC[C@@H](C)[C@H]3C(N)=O)nc2C)n1)(C([2H])([2H])[2H])C([2H])([2H])[2H]
[II] [2H]C([2H])([2H])C([2H])([2H])N(c1cncc(-c2sc(NC(=O)N3CC[C@@H](C)[C@H]3C(N)=O)nc2C)n1)C([2H])([2H])C([2H])([2H])[2H]
**Q:** Sorting by pIC50 in descending order, would I or II appear first? # respond with the chosen item's label
**A:** II
(II: 6.03, I: 5.80)

====

Observed IC50 for PI3Kδ (Homo sapiens), reported per entry below.
OUTCOME_MEASURE: IC50 (µM)

Worked cases, answers included:
>>> endpoint_result("Cc1nc(NC(=O)N2CCC(C)(C)C2C(N)=O)sc1-c1ccnc(C(C)(C)C(F)(F)F)c1 (racemic)")
0.437
>>> endpoint_result("Cc1nc(NC(=O)N2CC[C@@H](C)[C@H]2C(N)=O)sc1-c1ccnc(C2(C)CC2)c1")
0.168

[a] Cc1nc(NC(=O)N2CCC(C)(C)C2C(N)=O)sc1-c1ccnc(C2(C)CC2)c1 (racemic)
[b] Cc1nc(NC(=O)N2CC[C@@H](CN3CCOCC3)[C@H]2C(N)=O)sc1-c1ccnc(C2(C)CC2)c1
**Q:** Higher IC50 between a and b ? # respond with the chosen item's label
**A:** a
(a: 0.8 µM, b: 0.19 µM)

====

# ASSAY_TARGET: PI3Kδ (Homo sapiens)
# Construct: p85iSH2(461-568)-GGGGGG-p110δ(2-1044)-His; His (C); made in house; host or cells: baculovirus / Tn5 insect cells
# Sequence (O00329 with tags, fused parts or gaps): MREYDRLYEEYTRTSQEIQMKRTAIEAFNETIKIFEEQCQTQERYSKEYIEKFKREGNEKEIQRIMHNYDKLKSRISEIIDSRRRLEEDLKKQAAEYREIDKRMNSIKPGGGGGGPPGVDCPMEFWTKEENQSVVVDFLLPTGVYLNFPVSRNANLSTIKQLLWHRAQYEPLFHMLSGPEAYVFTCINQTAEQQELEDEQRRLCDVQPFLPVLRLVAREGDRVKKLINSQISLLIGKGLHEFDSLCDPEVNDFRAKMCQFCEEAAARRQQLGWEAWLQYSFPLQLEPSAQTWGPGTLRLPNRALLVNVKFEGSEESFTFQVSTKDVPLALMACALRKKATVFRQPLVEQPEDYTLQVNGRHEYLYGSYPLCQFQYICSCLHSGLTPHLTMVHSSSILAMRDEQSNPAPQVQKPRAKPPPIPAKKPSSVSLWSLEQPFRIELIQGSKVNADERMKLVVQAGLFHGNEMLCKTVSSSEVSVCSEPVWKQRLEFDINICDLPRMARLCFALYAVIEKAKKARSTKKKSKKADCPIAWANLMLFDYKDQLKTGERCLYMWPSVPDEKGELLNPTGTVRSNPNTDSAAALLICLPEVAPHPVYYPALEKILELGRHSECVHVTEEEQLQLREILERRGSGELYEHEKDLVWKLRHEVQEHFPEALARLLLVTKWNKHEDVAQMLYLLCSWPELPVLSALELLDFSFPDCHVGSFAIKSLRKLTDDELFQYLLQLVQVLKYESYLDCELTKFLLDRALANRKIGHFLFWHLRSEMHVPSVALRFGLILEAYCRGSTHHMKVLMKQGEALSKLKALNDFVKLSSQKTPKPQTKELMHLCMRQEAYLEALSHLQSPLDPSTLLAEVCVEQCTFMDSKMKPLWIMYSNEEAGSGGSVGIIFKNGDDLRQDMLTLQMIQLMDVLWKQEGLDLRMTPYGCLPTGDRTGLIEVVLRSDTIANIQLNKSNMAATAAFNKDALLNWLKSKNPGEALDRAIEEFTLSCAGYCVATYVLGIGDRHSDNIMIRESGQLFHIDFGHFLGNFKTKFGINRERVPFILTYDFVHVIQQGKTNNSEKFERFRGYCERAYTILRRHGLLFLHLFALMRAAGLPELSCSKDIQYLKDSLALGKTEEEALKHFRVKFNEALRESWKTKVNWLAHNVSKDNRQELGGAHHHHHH
# ASSAY_PROTOCOL: PI3K KinaseGlo assay, PI3Kdelta
# Format: biochemical
# MEASUREMENT_PARAMETERS: selectivity factor: PI3Kdelta IC50 divided by PI3Kalpha IC50
OUTCOME_MEASURE: PI3Kdelta (selectivity)

>>> endpoint_result("Cc1nc(NC(=O)N2CC[C@@H](C)[C@H]2C(N)=O)sc1-c1ccnc(C(C)(C)C)c1")
"(13)"
>>> endpoint_result("Cc1nc(NC(=O)N2CC[C@@H](C)[C@H]2C(N)=O)sc1-c1ccnc(C(C)(C)C(F)(F)F)c1")
"(2)"
>>> endpoint_result("[2H]C([2H])([2H])C([2H])([2H])N(c1cncc(-c2sc(NC(=O)N3CC[C@@H](C)[C@H]3C(N)=O)nc2C)n1)C([2H])([2H])C([2H])([2H])[2H]")
"(12)"
>>> endpoint_result("Cc1nc(NC(=O)N2CCC(C)(C)C2C(N)=O)sc1-c1ccnc(C2(C)CC2)c1 (racemic)")
"(15)"
